target: human CA-IX (Homo sapiens, UniProt Q16790); construct: purchased Acro CA9-H82E3; assay: Surface Plasmon Resonance (SPR) binding kinetics to recombinant human CA-IX (Biacore 8K, single-cycle kinetics, 1:1 binding model); settings: Chelated Metal: Lu-175; SPR, 25° C., pH 7.4; read-out: CAIX KD
Property Name: Kd

Example results:
Compound | Kd
CC(CCCC(=O)N1CCC(C(N)=O)(C(=O)NCC(=O)N2CCN(C(=O)CCOCCOCCNC(=O)CN3CCN(CC(=O)O)CCN(CC(=O)O)CCN(CC(=O)O)CC3)C[C@@H]2C(=O)NCCn2cc(C34CC(C(=O)Nc5nnc(S(N)(=O)=O)s5)(C3)C4)nn2)CC1)(c1ccc(O)cc1)c1ccc(O)cc1.[Lu+3] | < 1 nM
CC(CCC(=O)N1CCOC[C@H]1C(=O)N[C@@H](CC(=O)N1CCN(C(=O)CN2CCN(CC(=O)O)CCN(CC(=O)O)CCN(CC(=O)O)CC2)C[C@@H]1C(=O)NCCn1cc(C23CC(C(=O)Nc4nnc(S(N)(=O)=O)s4)(C2)C3)nn1)C(N)=O)(c1ccc(O)cc1)c1ccc(O)cc1.[Lu+3] | 1 to 2.5 nM
NS(=O)(=O)c1nnc(NC(=O)C23CC(c4cn(CCNC(=O)[C@@H]5CN(C(=O)CN6CCN(CC(=O)O)CCN(CC(=O)O)CCN(CC(=O)O)CC6)CCN5C(=O)C[C@H](NC(=O)C[C@H](NC(=O)Cc5n[nH]c6ccc(O)cc56)C(=O)O)C(=O)O)nn4)(C2)C3)s1.[Lu+3] | < 1 nM
CC(CCCC(=O)N1CCC(C(N)=O)(C(=O)NCC(=O)NC2(C(=O)NCCn3cc(C45CC(C(=O)Nc6nnc(S(N)(=O)=O)s6)(C4)C5)nn3)CCN(C(=O)CN3CC4(C3)CN(C(=O)CN3CCN(CC(=O)O)CCN(CC(=O)O)CCN(CC(=O)O)CC3)C4)CC2)CC1)(c1ccc(O)cc1)c1ccc(O)cc1.[Lu+3] | < 1 nM
CC(CCCC(=O)N1CCC(C(=O)O)(C(=O)NCC(=O)N2CCN(C(=O)CN3CCN(CC(=O)O)CCN(CC(=O)O)CCN(CC(=O)O)CC3)C[C@@H]2C(=O)NCCn2cc(C34CC(C(=O)Nc5nnc(S(N)(=O)=O)s5)(C3)C4)nn2)CC1)(c1ccc(O)cc1)c1ccc(O)cc1.[Lu+3] [Compound 107.6] | < 1 nM
CC(CCC(=O)N[C@@H](CC(=O)N[C@@H](CC(=O)N1CCN(C(=O)CN2CCN(CC(=O)O)CCN(CC(=O)O)CCN(CC(=O)O)CC2)C[C@@H]1C(=O)NCCn1cc(C23CC(C(=O)Nc4nnc(S(N)(=O)=O)s4)(C2)C3)nn1)C(=O)O)C(=O)O)(c1ccc(O)cc1)c1ccc(O)cc1.[Lu+3] | 1 to 2.5 nM
CC(CCC(=O)N[C@@H](CC(=O)N[C@@H](CC(=O)N[C@@H](CCCCn1cc(C23CCC(C(=O)Nc4nnc(S(N)(=O)=O)s4)(CC2)C3)nn1)C(=O)NCC1(C(=O)O)CCN(C(=O)CN2CCN(CC(=O)O)CCN(CC(=O)O)CCN(CC(=O)O)CC2)CC1)C(=O)O)C(=O)O)(c1ccc(O)cc1)c1ccc(O)cc1.[Lu+3] | < 1 nM
NC(=O)C1(C(=O)NCC(=O)N2CCN(C(=O)CN3CCN(CC(=O)O)CCN(CC(=O)O)CCN(CC(=O)O)CC3)C[C@H]2C(=O)NCCn2cc(C34CC(C(=O)Nc5nnc(S(N)(=O)=O)s5)(C3)C4)nn2)CCN(C(=O)Cn2nc(-c3ccc(O)cc3)c3ccc(O)cc32)CC1.[Lu+3] | > 10 nM
CC(CCCC(=O)N1CCC(C(=O)O)(C(=O)NCC(=O)N2CCN(C(=O)CN3CCN(CC(=O)O)CCN(CC(=O)O)CCN(CC(=O)O)CC3)C[C@H]2C(=O)NCCn2cc(C34CCC(C(=O)Nc5nnc(S(N)(=O)=O)s5)(CC3)CC4)nn2)CC1)(c1ccc(O)cc1)c1ccc(O)cc1.[Lu+3] | < 1 nM
CC(CCC(=O)N[C@@H](CC(=O)N[C@@H](Cc1cn([C@@H](CCCCn2cc(C34CC(C(=O)Nc5nnc(S(N)(=O)=O)s5)(C3)C4)nn2)C(=O)NCCOCCOCCNC(=O)CN2CCN(CC(=O)O)CCN(CC(=O)O)CCN(CC(=O)O)CC2)nn1)C(=O)O)C(=O)O)(c1ccc(O)cc1)c1ccc(O)cc1.[Lu+3] | < 1 nM

Quick one: Kd for CC(CCC(=O)N[C@@H](CC(=O)N[C@@H](CC(=O)N[C@@H](CCCn1cc(C2CCC(C(=O)Nc3nnc(S(N)(=O)=O)s3)CC2)nn1)C(=O)NCCOCCOCCNC(=O)CN1CCN(CC(=O)O)CCN(CC(=O)O)CCN(CC(=O)O)CC1)C(=O)O)C(=O)O)(c1ccc(O)cc1)c1ccc(O)cc1.[Lu+3] (stereo partly shown) ?
< 1 nM

Another compound to check: `CC(CCCC(=O)N1CCC(C(N)=O)(C(=O)NCC(=O)N2CCN(C(=O)CC[C@H](C(=O)O)N3CCN(CC(=O)O)CCN(CC(=O)O)CCN(CC(=O)O)CC3)C[C@H]2C(=O)NCCn2cc(C34CC(C(=O)Nc5nnc(S(N)(=O)=O)s5)(C3)C4)nn2)CC1)(c1ccc(O)c(F)c1)c1ccc(O)c(F)c1.[Lu+3]`
< 1 nM

Subsequent entry: `NS(=O)(=O)c1nnc(NC(=O)C23CC(c4cn(CCNC(=O)[C@@H]5CN(C(=O)CN6CCN(CC(=O)O)CCN(CC(=O)O)CCN(CC(=O)O)CC6)CCN5C(=O)C[C@H](NC(=O)C[C@H](NC(=O)c5n[nH]nc5C(F)(F)F)C(=O)O)C(=O)O)nn4)(C2)C3)s1.[Lu+3]`
< 1 nM
